Tested on: Caco-2
Test: drug sensitivity score (DSS) for viability; higher = more toxic; extreme values may be limits of the assay
Settings: 72 h
Assignment: determine reported drug sensitivity score for the given compounds.
Form: value (number only, do not type unit).

Form: compound = C=C[C@@]1(C)CC(=O)[C@]2(O)[C@@]3(C)[C@@H](O)CCC(C)(C)[C@@H]3[C@H](OC(=O)CCN(C)C)[C@H](OC(C)=O)[C@@]2(C)O1 [colforsin-daproate] ; drug sensitivity score = 0.1

Form: compound = CC(C)Nc1nc2cc(Cl)c(Cl)cc2n1[C@H]1O[C@@H](CO)[C@H](O)[C@@H]1O ; drug sensitivity score = 0

Form: compound = O=C1C(Cl)=C(N2CCOCC2)C(=O)N1c1ccc(Cl)c(Cl)c1 ; drug sensitivity score = 0

Form: compound = COc1ccc2c3c1O[C@H]1C[C@@H](O)C=C[C@@]31CCN(C)C2 ; drug sensitivity score = 0

Form: compound = CN1C(=O)N(c2ccc(C#N)c(C(F)(F)F)c2)C(=O)[C@]1(CO)c1ccccc1 [GLPG0492-R-enantiomer] ; drug sensitivity score = 0

Form: compound = c1ccc2c(c1)CCCc1cc(NCCN3CCOCC3)nnc1-2 ; drug sensitivity score = 0

Form: compound = CO[C@@H](C)Cn1c(=O)n(C)c2cnc3ccc(-c4cncc(C(C)(C)O)c4)cc3c21 ; drug sensitivity score = 14

Form: compound = CN(C)/N=N/c1ccc(C(=O)O)cc1 ; drug sensitivity score = 0

Form: compound = CCN(Cc1ccncc1)C(=O)C(CO)c1ccccc1 (stereo not drawn) [tropicamide] ; drug sensitivity score = 0

Form: compound = O=C(O)[C@]1(Cc2cccc(Nc3nccs3)n2)CC[C@@H](Oc2cccc(Cl)c2F)CC1 ; drug sensitivity score = 4.6

Form: compound = C/C=C1\[C@H]2C=C(C)C[C@]1(N)c1ccc(=O)[nH]c1C2 [(-)-Huperzine A] ; drug sensitivity score = 0

Form: compound = O=S(=O)(NCC1CC1)c1ccc(Nc2nccc(N3CCCc4cc(O)ccc43)n2)cc1 ; drug sensitivity score = 0

Form: compound = COc1cc(OC2CCN(C)CC2)ccc1Nc1ncc2c(n1)n(C1CCCC1)c(=O)n2C ; drug sensitivity score = 1.5

Form: compound = CC(=O)[C@H]1CC[C@H]2[C@@H]3CC[C@H]4C[C@H](O)CC[C@]4(C)[C@H]3C(=O)C[C@]12C ; drug sensitivity score = 0

Form: compound = C=C[C@@H]1C[C@]1(NC(=O)[C@@H]1C[C@@H]2CN1C(=O)[C@H](C(C)(C)C)NC(=O)O[C@@H]1C[C@H]1CCCCCc1nc3ccc(OC)cc3nc1O2)C(=O)NS(=O)(=O)C1CC1 ; drug sensitivity score = 1.2

Form: compound = O=C(O)c1cc(/N=N/c2ccc(S(=O)(=O)Nc3ccccn3)cc2)ccc1O ; drug sensitivity score = 0

Form: compound = CCCCCCc1ccc(O)cc1O.Nc1c2ccccc2nc2ccccc12 ; drug sensitivity score = 3.3

Form: compound = NCCCC[C@H](NC(=O)[C@@H]1CCCN1C(=O)[C@@H]1CSSC[C@H](N)C(=O)N[C@@H](Cc2ccc(O)cc2)C(=O)N[C@@H](Cc2ccccc2)C(=O)N[C@@H](CCC(N)=O)C(=O)N[C@@H](CC(N)=O)C(=O)N1)C(=O)NCC(N)=O ; drug sensitivity score = 0

Form: compound = CCC(CC)COC(=O)[C@H](C)N[P@](=O)(OC[C@H]1O[C@@](C#N)(c2ccc3c(N)ncnn23)[C@H](O)[C@@H]1O)Oc1ccccc1 ; drug sensitivity score = 1.2

Form: compound = O=C(O)c1cccnc1Nc1cccc(C(F)(F)F)c1 ; drug sensitivity score = 0

Form: compound = O=C(/C=C/c1ccccc1)NCCO ; drug sensitivity score = 0

Form: compound = Cc1c(CN2CCN(C(=O)[C@H](C)O)CC2)sc2c(N3CCOCC3)nc(-c3cnc(N)nc3)nc12 ; drug sensitivity score = 11

Form: compound = CCCN[C@H]1CCc2nc(N)sc2C1 [pramipexole] ; drug sensitivity score = 0

Form: compound = CNCC(O)c1ccc(OC(=O)C(C)(C)C)c(OC(=O)C(C)(C)C)c1 (stereo not drawn) ; drug sensitivity score = 0.9

Form: compound = Cc1cc(NC(=O)Nc2ccc(N(C)C)cc2)c2cc(F)cc(F)c2n1 ; drug sensitivity score = 0.1

Form: compound = CCCC[N+]1(C)[C@@H]2C[C@@H](OC(=O)[C@H](CO)c3ccccc3)C[C@H]1[C@@H]1O[C@@H]12 (stereo partly drawn) [butylscopolamine-bromide] ; drug sensitivity score = 0

Form: compound = C=C1CCN([C@H](C)[C@](O)(Cn2cncn2)c2ccc(F)cc2F)CC1 ; drug sensitivity score = 1.7

Form: compound = CN(C)Cc1c(C(=O)NCCOc2ccc(C(=O)NO)cc2)oc2ccccc12 ; drug sensitivity score = 15.6

###

Test system: Vero E6
Assay: cell viability relative to DMSO; higher = less toxic
Conditions: 72 h; 1 nM
reported_endpoint: cell viability (%)
Write it as a number; the unit % goes unstated.

Form: molecule = CC(C)SC(=N)N ; cell viability = 103

Form: molecule = CC(C)(C)/[N+]([O-])=C/c1ccc(S(=O)(=O)O)cc1S(=O)(=O)O ; cell viability = 99.1

Form: molecule = COC(=O)[C@H](Cc1cccc(C(=N)N)c1)[C@@H](C)NC(=O)c1ccc(-c2cc[n+]([O-])cc2)cc1 ; cell viability = 103

Form: molecule = O=C(O)c1ccccc1Nc1cc(Cl)ccc1C(=O)O ; cell viability = 97.7

Form: molecule = CC(N)Cc1ccc(O)cc1 (stereo not given) [hydroxyamphetamine] ; cell viability = 99.9

###

Test system: Calu-3
Assay: cell viability relative to DMSO; higher = less toxic
Conditions: 72 h; 1000 nM
Assignment: determine reported cell viability for the given compounds.
Write it as a number; the unit % goes unstated.

Form: compound = C[N+]1(C)CCCC(OC(=O)C(O)(c2ccccc2)c2ccccc2)C1 (centres undefined) [mepenzolate] ; cell viability = 110

Form: compound = C[C@@H](Oc1cc(-n2cnc3ccc(CN4CCN(C)CC4)cc32)sc1C(N)=O)c1ccccc1C(F)(F)F ; cell viability = 84.8

Form: compound = CCCC[C@@]1(C2CCCC2)Cc2cc(OCCCC(=O)O)c(Cl)c(Cl)c2C1=O ; cell viability = 89.1

Form: compound = NC(=O)N1c2ccccc2C=Cc2ccccc21 [carbamazepine] ; cell viability = 98.4

Form: compound = CCNC1(C(N)=O)CCN(c2ncnc3c2nc(-c2ccccc2Cl)n3-c2ccc(Cl)cc2)CC1 ; cell viability = 108

Form: compound = C[C@@H](CN1CCC(Cc2ccccc2)CC1)[C@@H](O)c1ccc(O)cc1 ; cell viability = 95.8

Form: compound = CO[C@@H](C)Cn1c(=O)n(C)c2cnc3ccc(-c4cncc(C(C)(C)O)c4)cc3c21 ; cell viability = 26.9

Form: compound = CN(C)C(=N)NCCC[C@H](N)C(=O)O ; cell viability = 102

Form: compound = Cc1ccc(NC(=O)c2cccc(N(C)C)c2)cc1NC(=O)c1ccc(O)cc1 ; cell viability = 94.7

###

Tested on: Caco-2
Assay: cell viability relative to DMSO; higher = less toxic
Settings: 72 h; 1000 nM
Structures can show the parent of a compound that is named as a salt.
Assignment: determine reported cell viability for the given molecules.
Write it as a number; the unit % goes unstated.

Form: molecule = CCC(=O)O[C@]1(C(=O)CCl)[C@@H](C)C[C@H]2[C@@H]3C[C@H](F)C4=CC(=O)C=C[C@]4(C)[C@@]3(F)[C@@H](O)C[C@@]21C [halobetasol-propionate] ; cell viability = 108

Form: molecule = CN(C)Cc1c(C(=O)NCCOc2ccc(C(=O)NO)cc2)oc2ccccc12 ; cell viability = 23.6

Form: molecule = CN[C@H](CC(C)C)C(=O)N[C@H]1C(=O)N[C@@H](CC(N)=O)C(=O)N[C@H]2C(=O)N[C@H]3C(=O)N[C@H](C(=O)N[C@H](C(=O)O)c4cc(O)cc(O)c4-c4cc3ccc4O)[C@H](O)c3ccc(c(Cl)c3)Oc3cc2cc(c3O[C@@H]2O[C@H](CO)[C@@H](O)[C@H](O)[C@H]2O[C@H]2C[C@](C)(N)[C@H](O)[C@H](C)O2)Oc2ccc(cc2Cl)[C@H]1O [VANCOMYCIN HYDROCHLORIDE] ; cell viability = 99.8

Form: molecule = Clc1ccc(CO/N=C(\Cn2ccnc2)c2ccc(Cl)cc2Cl)c(Cl)c1 ; cell viability = 90

Form: molecule = c1ccc2c(Cc3c[nH]c4ccccc34)c[nH]c2c1 ; cell viability = 117

###

Assignment: determine reported cell count for the given compounds.
System: A549-ACE2 infected with SARS-CoV-2
Test: cell count relative to DMSO; higher = less toxic
Details: 0.3 µM; 24 h
Write it as a number; the unit % goes unstated.

Form: compound = O=c1[nH]c2ccccc2n1C1CCN(CCCC(c2ccc(F)cc2)c2ccc(F)cc2)CC1 [pimozide] ; cell count = 92

Form: compound = CCC(CC)COC(=O)[C@H](C)N[P@](=O)(OC[C@H]1O[C@@](C#N)(c2ccc3c(N)ncnn23)[C@H](O)[C@@H]1O)Oc1ccccc1 ; cell count = 126

Form: compound = COc1c(OCCCN2CCOCC2)ccc2c1N=C(NC(=O)c1cnc(N)nc1)N1CCN=C21 ; cell count = 100

Form: compound = CNC(=O)c1ccccc1Sc1ccc2c(/C=C/c3ccccn3)n[nH]c2c1 ; cell count = 105

Form: compound = Cc1nc(Nc2ccc(F)cc2)nc(N2CCc3ccccc3C2C)c1C (centres undefined) ; cell count = 105

Form: compound = COc1ccc(C[C@H]2NC[C@H](O)[C@H]2OC(C)=O)cc1 ; cell count = 85

Form: compound = CCN1CCC(n2cc(CNc3cc(Cl)c4ncc(C#N)c(Nc5ccc(F)c(Cl)c5)c4c3)nn2)CC1 ; cell count = 102

Form: compound = COc1ccc(NC(=O)c2ccc(-c3ccc(-c4noc(C)n4)cc3C)cc2)cc1N1CCN(C)CC1 ; cell count = 104

Form: compound = CC(C)Oc1ccc(-c2nc(-c3cccc4c3CC[C@@H]4NCCO)no2)cc1C#N ; cell count = 100
